Origin of the recorded values: patent US20180044434A1

- Target Entity: T1, full-length recombinant human PAD4 (human, UniProt Q9UM07 1-663)
- T1 construct: Full-length recombinant; also called peptidylarginine deiminase 4
- T1 sequence (Q9UM07 whole entry): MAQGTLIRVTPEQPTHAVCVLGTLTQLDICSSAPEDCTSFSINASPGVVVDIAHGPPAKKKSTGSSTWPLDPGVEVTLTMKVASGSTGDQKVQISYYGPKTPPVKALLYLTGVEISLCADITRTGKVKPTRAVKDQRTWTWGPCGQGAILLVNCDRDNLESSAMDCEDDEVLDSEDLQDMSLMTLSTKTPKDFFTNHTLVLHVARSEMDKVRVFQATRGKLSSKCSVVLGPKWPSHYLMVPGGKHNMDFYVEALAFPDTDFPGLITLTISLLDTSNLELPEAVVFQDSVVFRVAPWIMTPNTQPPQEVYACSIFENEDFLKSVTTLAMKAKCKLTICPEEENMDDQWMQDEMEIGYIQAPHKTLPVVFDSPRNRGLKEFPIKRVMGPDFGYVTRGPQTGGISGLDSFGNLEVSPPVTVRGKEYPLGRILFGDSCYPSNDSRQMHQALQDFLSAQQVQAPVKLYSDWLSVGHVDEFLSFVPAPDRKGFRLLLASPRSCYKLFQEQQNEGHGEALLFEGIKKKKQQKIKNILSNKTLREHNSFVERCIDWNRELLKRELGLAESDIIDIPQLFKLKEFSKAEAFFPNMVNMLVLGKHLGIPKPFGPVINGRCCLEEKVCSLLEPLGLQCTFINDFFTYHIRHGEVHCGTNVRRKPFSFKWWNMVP
- Protocol Notes: ELISA, immobilized human PAD4

Binder	O.D. 490/630 at 0.125 µg/mL
humanized anti-PAD4 antibody derived from H7, VH H4.32 / VL L4.17 (antibody, IgG1, V domains shown, IgG1 kappa; also called H7 H4.32/L4.17) VH: EVQLLESGGGLVQPGGSLRLSCAASGFTFSTYAMGWVRQAPGKGLEFVAAIRNDGSWTGYGAAVKGRVTISRDNSKNTVYLQMNSLRAEDTAVYYCAKYTGSSGGSIGAWGQGTLVTVSS VL: SYELTQPPSVSVSPGQTARITCSGGSGRYYYGWYQQKPGQAPVTVIYSSTHRPSGIPERFSGSTSGNTTTLTISGVQAEDEADYYCGTADSSSYVFGGGTKLTVLG	1.86
humanized anti-PAD4 antibody derived from G8, VH H4.32 / VL L4.06 (antibody, IgG1, V domains shown, IgG1 kappa; also called G8 H4.32/L4.06) VH: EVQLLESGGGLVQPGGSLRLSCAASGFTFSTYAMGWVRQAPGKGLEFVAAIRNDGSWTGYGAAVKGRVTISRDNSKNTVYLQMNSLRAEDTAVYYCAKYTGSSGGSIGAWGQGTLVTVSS VL: SYELTQPPSVSVSPGQTARITCSGGNRNYYYGWYQQKPGQAPVTVIYANDKRPSGIPERFSGSYSGNTTTLTISGVQAEDEADYYCGTADTGKYVFGGGTKLTVLG	1.86
humanized anti-PAD4 antibody derived from H7, VH H4.32 / VL L4.15 (antibody, IgG1, V domains shown, IgG1 kappa; also called H7 H4.32/L4.15) VH: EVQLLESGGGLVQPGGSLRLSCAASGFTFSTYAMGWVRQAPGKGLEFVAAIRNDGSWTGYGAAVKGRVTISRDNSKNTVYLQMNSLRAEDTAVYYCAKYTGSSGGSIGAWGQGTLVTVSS VL: SYELTQPPSVSVSPGQTARITCSGGSGRYYYGWYQQKPGQAPVTVIYSSTHRPSGIPERFSGSNSGNTTTLTISGVQAEDEADYYCGTADSSSYVFGGGTKLTVLG	1.87
humanized anti-PAD4 antibody derived from H7, VH H4.15 / VL L4.00 (antibody, IgG1, V domains shown, IgG1 kappa; also called H7 H4.15/L4.00) VH: EVQLLESGGGLVQPGGSLRLSCAASGFTFSTYAMGWVRQAPGKGLEFVSAIRNDGSWTGYGAAVKGRFTISRDNSKNTVYLQMNSLRAEDTAVYYCAKYTGSSGGSIGAWGQGTLVTVSS VL: SYELTQPPSVSVSPGQTARITCSGGSGRYYYGWYQQKPGQAPVLVIYSSTHRPSGIPERFSGSSSGTTVTLTISGVQAEDEADYYCGTADSSSYVFGGGTKLTVLG	1.84
humanized anti-PAD4 antibody derived from G8, VH H4.15 / VL L4.00 (antibody, human IgG1, kappa, V domains shown, IgG1 kappa; also called G8 H4.15/L4.00) VH: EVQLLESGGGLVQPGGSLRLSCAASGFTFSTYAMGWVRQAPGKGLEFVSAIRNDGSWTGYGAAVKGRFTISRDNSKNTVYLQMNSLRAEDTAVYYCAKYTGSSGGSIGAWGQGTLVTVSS VL: SYELTQPPSVSVSPGQTARITCSGGNRNYYYGWYQQKPGQAPVLVIYANDKRPSGIPERFSGSSSGTTVTLTISGVQAEDEADYYCGTADTGKYVFGGGTKLTVLG	1.87
humanized anti-PAD4 antibody derived from G8, VH H4.15 / VL L4.29 (antibody, human IgG1, kappa, V domains shown, IgG1 kappa; also called G8 H4.15/L4.29) VH: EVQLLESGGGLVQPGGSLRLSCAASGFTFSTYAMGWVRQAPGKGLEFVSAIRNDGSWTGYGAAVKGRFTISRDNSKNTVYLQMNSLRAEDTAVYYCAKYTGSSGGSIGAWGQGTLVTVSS VL: SYELTQPPSVSVSPGQTARITCSGGNRNYYYGWYQQKPGQAPVTVIYANDKRPSGIPERFSGSNSGSTTTLTISGVQAEDEADYYCGTADTGKYVFGGGTKLTVLG	1.86
humanized anti-PAD4 antibody derived from H7, VH H4.15 / VL L4.17 (antibody, IgG1, V domains shown, IgG1 kappa; also called H7 H4.15/L4.17) VH: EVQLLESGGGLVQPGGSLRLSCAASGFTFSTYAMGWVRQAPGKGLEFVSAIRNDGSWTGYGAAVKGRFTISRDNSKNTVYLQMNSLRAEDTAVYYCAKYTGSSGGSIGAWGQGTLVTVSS VL: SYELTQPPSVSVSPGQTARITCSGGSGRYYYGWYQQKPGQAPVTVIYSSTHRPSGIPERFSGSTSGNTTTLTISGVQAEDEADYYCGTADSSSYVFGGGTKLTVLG	1.81
humanized anti-PAD4 antibody derived from G8, VH H4.15 / VL L4.06 (antibody, human IgG1, kappa, V domains shown, IgG1 kappa; also called G8 H4.15/L4.06) VH: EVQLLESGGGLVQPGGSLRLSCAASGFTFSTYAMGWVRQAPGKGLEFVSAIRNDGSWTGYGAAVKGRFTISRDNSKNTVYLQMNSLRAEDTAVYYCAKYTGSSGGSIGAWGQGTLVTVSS VL: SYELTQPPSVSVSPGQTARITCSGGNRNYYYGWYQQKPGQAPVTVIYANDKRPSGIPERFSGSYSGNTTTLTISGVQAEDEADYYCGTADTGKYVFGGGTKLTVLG	1.91
humanized anti-PAD4 antibody derived from H7, VH H4.15 / VL L4.06 (antibody, IgG1, V domains shown, IgG1 kappa; also called H7 H4.15/L4.06) VH: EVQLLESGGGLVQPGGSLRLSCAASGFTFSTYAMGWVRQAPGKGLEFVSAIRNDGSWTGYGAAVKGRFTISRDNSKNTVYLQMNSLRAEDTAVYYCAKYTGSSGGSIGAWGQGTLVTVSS VL: SYELTQPPSVSVSPGQTARITCSGGSGRYYYGWYQQKPGQAPVTVIYSSTHRPSGIPERFSGSYSGNTTTLTISGVQAEDEADYYCGTADSSSYVFGGGTKLTVLG	1.84
humanized anti-PAD4 antibody derived from H7, VH H4.32 / VL L4.06 (antibody, IgG1, V domains shown, IgG1 kappa; also called H7 H4.32/L4.06) VH: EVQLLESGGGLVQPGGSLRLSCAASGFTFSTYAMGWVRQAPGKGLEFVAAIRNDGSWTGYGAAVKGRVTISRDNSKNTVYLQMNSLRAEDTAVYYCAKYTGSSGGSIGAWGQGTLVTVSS VL: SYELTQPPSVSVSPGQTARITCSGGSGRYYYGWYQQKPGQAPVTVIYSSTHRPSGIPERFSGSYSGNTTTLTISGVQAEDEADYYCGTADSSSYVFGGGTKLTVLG	1.82
